# Tested on: OVCAR-8 ovarian
# experimental details: NCI tumour cell line growth inhibition, 48 h
measured metric: log10(TGI) (log10 of the value in µM)
Remember, log10 of TGI, in µM.

Challenge: Dear colleague, I am looking for the recorded log10(TGI) of the following compound: C=C(C)[C@@H](O)[C@H](O)C[C@H](C)C1CC[C@]2(C)C1=CC[C@@H]1[C@@]3(C)CC[C@@H](OC(C)=O)C(C)(C)[C@@H]3C[C@@H](OC3OC(COC(C)=O)C(O)C(O)C3O)[C@]12C (stereo not given in full)
Response given: 1.14

Challenge: Would you mind telling me what log10(TGI) value was observed for "O=C1C=C(Nc2ccccc2C(=O)CC(=O)C(=O)Nc2ccc(Cl)cc2)c2ccccc2C1=O" ?
Response given: 1.57

Challenge: Quick one: log10(TGI) of "O=C1CC(/C=C/c2ccco2)=C(O)C1=O" ?
Response given: 1.48

Challenge: # input compound: "CN1CCN(Cc2ccc(NC(=O)c3cncc(C#Cc4c(N)ncc5ccc(C#N)cc45)c3)cc2C(F)(F)F)CC1" ; wanted: its log10(TGI)
Response given: 0.27

Challenge: Query: log10(TGI); subject: "Cn1c(-c2ccc[se]2)ccc1-c1ccc(C=O)[se]1"
Response given: 1.63

Challenge: I'd like to know its log10(TGI). The compound in question is COc1cc2c(cc1OC)C(C#N)N(C(=O)c1ccccc1)C=C2OC(=O)c1ccccc1 (stereo not given)
Response given: 1.86

Challenge: Would you kindly share the measured log10(TGI) for "CN(C)CCNC(=O)c1cccc2ccc(-c3ccc(Br)cc3)nc12" ?
Response given: 0.68

Challenge: Which log10(TGI) is listed for "CN(C)C1CCN(Cc2ccc(NC(=O)c3cncc(C#Cc4cnc(N)c5ncccc45)c3)cc2C(F)(F)F)CC1" ?
Response given: 1.46
